Reference source: patent US12037395

target: T1, recombinant human PD-1-his (Sino biological, #10377-H08H) (human, UniProt Q15116 25-167); test: SPR (Biacore T200), antibody captured, antigen flowed
T1 construct: Bought protein; also called Human PD-1-his protein; not shown: his tag
T1 sequence (Q15116 25-167 limits assumed): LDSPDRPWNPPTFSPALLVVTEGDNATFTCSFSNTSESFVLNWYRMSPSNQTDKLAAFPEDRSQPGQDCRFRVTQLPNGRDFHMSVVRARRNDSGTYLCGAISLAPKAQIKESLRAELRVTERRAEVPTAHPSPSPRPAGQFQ
Documented kon across a set of binders

Example entries and their recorded answers appear below.
[
  {
    "BINDER": "mouse anti-PD-1 monoclonal antibody C1A1 (antibody, mouse IgG1, kappa, V domains shown, Purified from hybridoma; Constant regions tied only generically to 'mouse antibodies') VH: QVTLKESGPGILKPSQTLSLTCSFSGFSLSTSGMGVGWIRQPSGKGLEWLAHIWWDDDKFYNPSLKSQLTISKDTSRNQVFLKITSVDTADTATYYCARTGGFITTGYWYFDVWGAGTTVTVSS VL: DIQMTQTTSSLSASLGDRVTISCRASQDISNYLIWYQQKTDGTLKLLIYYTSRLHSGVPSRFSGSGSGTDYSLTISNLEQEDIATYFCQQHKTLPWTFGGGTKLEIKR",
    "kon": "168000 M⁻¹ s⁻¹"
  },
  {
    "BINDER": "mouse anti-PD-1 monoclonal antibody C1F5 (antibody, mouse IgG1, kappa, V domains shown, Purified from hybridoma; Constant regions tied only generically to 'mouse antibodies') VH: EVQLVESGGGLVKPGGSLKLSCAASGFAFSSYDMSWVRQTPEKRLEWVAYITGGGSSSFYPDTVKGRFTISRDNSKNTLYLQMTSLRSEDTAMYYCASPYLSYFDYWGQGTTLTVSS VL: DIVLTQSPATLSVTPGDSVSLSCRASQSISNNLHWYQQKSHESPRLLIKYGSQSMSGIPSRFSGSGSGTDFTLVINSVETEDFGMYFCQQSNSWPLTFGAGTKLELKR",
    "kon": "353000 M⁻¹ s⁻¹"
  }
]

Output kon of mouse anti-PD-1 monoclonal antibody D1A1 (antibody, mouse IgG1, kappa, V domains shown, Purified from hybridoma; Constant regions tied only generically to 'mouse antibodies') VH: EVMLVESGGGLVKPGGSLKLSCAASGFTFSNYAMSWVRQTPEKRLEWVATISGGGGNIYYPDSVKGRFTISRDNARNTLYLQMSSLRSEDTALYYCASPYANYVWYLDVWGAGTTVTVSS VL: DIQMTQTTSSLSASLGDRVTISCRASQDISNYLNWYQQKPDGTVKLLIYYTSRLHSGVPSRFSGSGSGTDFSLTISNLEEEDIATYFCQQSNALPWTFGGGTKLEIKR
188000 M⁻¹ s⁻¹
